assay: Metabolic stability in rat liver microsomes measured after 15 to 30 mins by LC-MS/MS analysis; format: ADME, Microsome; settings: read-out: Stability
measurementName: microsomal CLint

Here is how some compounds turned out for microsomal CLint.
1. C[C@@H]1COc2ccc(OC(F)(F)F)cc2[C@H](C)N1C(=O)c1ccc(Cl)cc1; < 1 µL/min/mg
2. CCc1ccc2c(c1)[C@H](C)N(C(=O)c1ccc(Cl)cc1)[C@H](C)CO2; 206 µL/min/mg

Attention now shifts to the item below.
Supply measured microsomal CLint of C[C@@H]1COc2ccc(C#N)cc2[C@H](C)N1C(=O)c1ccc(Cl)cc1 in your reply.
< 1 µL/min/mg
